- System: biotinyl-Met-oxazolone
- assay-method-text: self-aminoacylation, catalytic enhancement (BMO) (fold over background); higher = more active; k-Seq, kA / k0A0; sequences stand for … in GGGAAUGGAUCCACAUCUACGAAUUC…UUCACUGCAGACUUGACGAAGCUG
Variants at the floor of the assay were thinned out.
Think of 1 as a floor: if self-aminoacylation stands on it or above, it is Fulfilled; beneath it, Not fulfilled.

residue-sequence: CUACUUAAAACCAUCGGUCUG [Fam1A.1 aminoacylation ribozyme variant]
class-assignment: Fulfilled
//
residue-sequence: CUACUACAUACAAUCGGUCUG [Fam1A.1 aminoacylation ribozyme variant]
class-assignment: Not fulfilled
//
residue-sequence: CCACAGAUCAAGCAAUCGGUC [Fam1B.1 aminoacylation ribozyme variant]
class-assignment: Not fulfilled
//
residue-sequence: AUUAACCUGGUCAUCGGGUGA [Fam2.1 aminoacylation ribozyme variant]
class-assignment: Fulfilled
//
residue-sequence: CGACUUCAAACAAUCGGUCUU [Fam1A.1 aminoacylation ribozyme variant]
class-assignment: Fulfilled
//
residue-sequence: AGGUUUGCUACUAGUCGCAAG [Fam3.1 aminoacylation ribozyme variant]
class-assignment: Fulfilled
//
residue-sequence: AUUCACGUAGGUCAUCGGGUC [Fam2.2 aminoacylation ribozyme variant]
class-assignment: Fulfilled
//
residue-sequence: AUUAACCGGGUCAUCGAGUGA [Fam2.1 aminoacylation ribozyme variant]
class-assignment: Fulfilled
//
residue-sequence: AUUACCCUGGUCAUGGAAUGA [Fam2.1 aminoacylation ribozyme variant]
class-assignment: Fulfilled
//
residue-sequence: UUUCACCUAGGUCACCGGGUG [Fam2.2 aminoacylation ribozyme variant]
class-assignment: Fulfilled
//
residue-sequence: CCACACUUCUAGCACUCGGUC [Fam1B.1 aminoacylation ribozyme variant]
class-assignment: Not fulfilled
//
residue-sequence: AAGUUUGGUAAUAGUCGCAAA [Fam3.1 aminoacylation ribozyme variant]
class-assignment: Fulfilled
//
residue-sequence: AUUAUCCUGGUCAUCGAGUGG [Fam2.1 aminoacylation ribozyme variant]
class-assignment: Fulfilled
//
residue-sequence: AUUACCCUGGUAAUCAAGUGA [Fam2.1 aminoacylation ribozyme variant]
class-assignment: Fulfilled
//
residue-sequence: AUUACCCUCGUCACCGAGUGA [Fam2.1 aminoacylation ribozyme variant]
class-assignment: Fulfilled
//
residue-sequence: CCACACUUCAAGCAAUCGGAU [Fam1B.1 aminoacylation ribozyme variant]
class-assignment: Not fulfilled
//
residue-sequence: AUUCGGCUAGGUCAUCGGGUG [Fam2.2 aminoacylation ribozyme variant]
class-assignment: Fulfilled

###

- System: biotinyl-Val-oxazolone
- assay-method-text: self-aminoacylation, catalytic enhancement (BVO) (fold over background); higher = more active; k-Seq, kA / k0A0; sequences stand for … in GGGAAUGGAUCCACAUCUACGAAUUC…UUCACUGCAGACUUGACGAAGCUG
Variants at the floor of the assay were thinned out.

residue-sequence: ACACACUACAAGCAAUCGGUC [Fam1B.1 aminoacylation ribozyme variant]
self-aminoacylation: 1.24
//
residue-sequence: CCACACUUCAAGCCAUCGGGC [Fam1B.1 aminoacylation ribozyme variant]
self-aminoacylation: 3.22
//
residue-sequence: CCAAACUUCAAGCAAUCGGGC [Fam1B.1 aminoacylation ribozyme variant]
self-aminoacylation: 2.26
//
residue-sequence: AAUCACCUAGGUCUUCGGGUG [Fam2.2 aminoacylation ribozyme variant]
self-aminoacylation: 3.98
//
residue-sequence: AGUACCCUGGUCAUGGAGUGA [Fam2.1 aminoacylation ribozyme variant]
self-aminoacylation: 2.27
//
residue-sequence: UUACUUCUAACAAUCGGUCUG [Fam1A.1 aminoacylation ribozyme variant]
self-aminoacylation: 1.08
//
residue-sequence: AAUCACCUAGGUCAUCGGGUU [Fam2.2 aminoacylation ribozyme variant]
self-aminoacylation: 3.65
//
residue-sequence: GUUUCCCUGGUCAUCGAGUGA [Fam2.1 aminoacylation ribozyme variant]
self-aminoacylation: 7.85

Where do the numbers come from? From the supplement of paper PMC9233669.
